# System: Fer (mouse)
# Procedure Summary: phosphorylation enrichment, bacterial display (enrichment ratio); higher = better substrate or ligand; peptides without Tyr show the background;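 further: 11-residue human phosphosite peptides and single-mutation variants displayed on the E. coli surface, counted by deep sequencing, each peptide's frequency after selection divided by its frequency in the unselected input library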;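 further: frequency after pTyr selection over input frequency; kinase dosed for 20-30% of maximal phosphorylation in three min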

| Residues | Assay Target | phosphorylation enrichment |
| --- | --- | --- |
| GSCQEYTGAPY [NAXD_Y85_G81S] | Fer (mouse) | 0.494 |
| RGRSTYFWPRP [GAGE12J_Y9_YF] | Fer (mouse) | 1.11 |
| SRIWVYNHFRC [BRCA2_Y2621_W2626C_YF] | Fer (mouse) | 0.653 |
| FGFPGYQCKHF [TIMP3_Y177_S179C_YF] | Fer (mouse) | 0.473 |
| LFSGDYFRIQG [DDR2_Y740_YF] | Fer (mouse) | 0.739 |
| LRSELYFLIAR [PHIP_Y16] | Fer (mouse) | 0.916 |
| KAESWYQTKFE [KRT75_Y342_E337K_YF] | Fer (mouse) | 0.594 |
| TTTQAYRVNER [PRKN_Y391_D394N] | Fer (mouse) | 0.447 |
| NALVQYQEMEK [BBS4_Y395_A393V] | Fer (mouse) | 0.509 |
| MSRLKYPVSQQ [BTK_Y375_I370M] | Fer (mouse) | 0.375 |

====

# Assay Target: Hck (UniProt P08631)
# Sequence (P08631 whole entry, looked up): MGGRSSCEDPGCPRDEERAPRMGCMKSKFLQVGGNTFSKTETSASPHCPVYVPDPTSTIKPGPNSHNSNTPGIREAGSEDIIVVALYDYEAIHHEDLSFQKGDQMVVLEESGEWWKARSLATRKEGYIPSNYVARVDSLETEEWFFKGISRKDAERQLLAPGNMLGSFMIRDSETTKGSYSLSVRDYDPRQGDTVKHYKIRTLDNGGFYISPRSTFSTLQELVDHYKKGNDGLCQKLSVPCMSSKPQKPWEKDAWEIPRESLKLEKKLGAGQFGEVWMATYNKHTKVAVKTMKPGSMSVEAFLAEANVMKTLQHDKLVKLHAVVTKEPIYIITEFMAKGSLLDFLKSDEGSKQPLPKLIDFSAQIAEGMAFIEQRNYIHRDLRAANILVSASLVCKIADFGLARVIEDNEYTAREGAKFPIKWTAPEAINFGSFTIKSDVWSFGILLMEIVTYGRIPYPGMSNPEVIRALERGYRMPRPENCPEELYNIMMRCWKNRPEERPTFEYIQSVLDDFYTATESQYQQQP
# Procedure Summary: phosphorylation enrichment, bacterial display (enrichment ratio); higher = better substrate or ligand; peptides without Tyr show the background
Please assign a class to every record based on measured phosphorylation enrichment, with ranges class A: < 0.5; class B: ≥ 0.5 and < 0.7; class C: ≥ 0.7

| Residues | Assay Target | Class Name |
| --- | --- | --- |
| KEGSAYGSQSV [NFKB2_Y868_D865G] | Hck (UniProt P08631) | class A |
| PELINYHQHNF [BTK_Y361_S366F] | Hck (UniProt P08631) | class C |
| SFPSTYRYERG [INPPL1_Y661_P659S] | Hck (UniProt P08631) | class A |
| LGGSPYPSVPV [FGFR1_Y701_G703S] | Hck (UniProt P08631) | class C |
| RSRSSYTHGLN [MYCT1_Y116] | Hck (UniProt P08631) | class C |
| GGPAEYLRRAS [PKLR_Y38_G37E] | Hck (UniProt P08631) | class A |
| KAIMIYVSSFY [ACTN4_Y260_T259I] | Hck (UniProt P08631) | class A |
| VPFAQYLAMNK [HARS1_Y138_R137Q] | Hck (UniProt P08631) | class B |
| NHQFDYTFDWT [CSNK1A1_Y294_YF] | Hck (UniProt P08631) | class B |
| RNEAFYDTFST [EFCAB3_Y372_S370A] | Hck (UniProt P08631) | class C |
| GLAELYEYKKK [CKAP5_Y1854] | Hck (UniProt P08631) | class C |
| IGRHAYGDQYR [IDH1_Y135] | Hck (UniProt P08631) | class A |
| NFYEYYVDDPL [GCHFR_Y48_P53L] | Hck (UniProt P08631) | class C |
| LDPDSYNVFEN [FOXC1_Y159_M161V] | Hck (UniProt P08631) | class B |
| TVQIMYGCDVG [HLA-A_Y123_I119V] | Hck (UniProt P08631) | class B |
| KGSLPYSLILD [PKD1L2_Y406_N407S] | Hck (UniProt P08631) | class B |
| EVASVYQSYQP [MAVS_Y92] | Hck (UniProt P08631) | class C |
| DVLPEYKLQAP [KCNH2_Y388] | Hck (UniProt P08631) | class B |
| VTQEQYELHCE [CBL_Y368_Y371H] | Hck (UniProt P08631) | class A |
| FFRRHYPLTTL [TNS4_Y644] | Hck (UniProt P08631) | class A |
| AACQHYGVHTC [NR4A2_Y275_R278H] | Hck (UniProt P08631) | class A |
| RNGDRYFKGIV [DCX_Y64] | Hck (UniProt P08631) | class A |
| TEQDPSNNIVR [MMUT_Y364_Y364S] | Hck (UniProt P08631) | class A |
| SIKNKYVTALF [KCNH2_Y611_D609N_YF] | Hck (UniProt P08631) | class A |
| SVSVNYGDLVQ [GRAP_Y101_Q104L] | Hck (UniProt P08631) | class A |
| VNYGAYINNFK [GLB1_Y488_D491N] | Hck (UniProt P08631) | class B |
| RLAKTYETTLK [ALB_Y377_E382K] | Hck (UniProt P08631) | class A |
| DFDNLYYWDQD [ERBB2_Y1221_A1216D] | Hck (UniProt P08631) | class C |
| PGRRFYVVACD [RNASE3_Y134] | Hck (UniProt P08631) | class C |
| GGYTWYCDGKK [PROS1_Y266_C265W] | Hck (UniProt P08631) | class A |
| QRPYVYYYSYL [PTEN_Y176_R173P] | Hck (UniProt P08631) | class C |
| FSCLPYGRLAF [SLC52A2_Y305_YF] | Hck (UniProt P08631) | class C |
| AVRFIYTIDGS [DCX_Y105_G100A_YF] | Hck (UniProt P08631) | class B |
| ERFAFYRDSPR [FOXE3_Y108] | Hck (UniProt P08631) | class B |
| VIKDKYPKARF [APTX_Y209_YF] | Hck (UniProt P08631) | class A |
| NFDRVYIFHLR [MYOF_Y1137_YF] | Hck (UniProt P08631) | class A |
| KAESWYQTKFE [KRT75_Y342_E337K_YF] | Hck (UniProt P08631) | class B |
| YKRAVYCIIGR [NUP93_Y391] | Hck (UniProt P08631) | class C |
| NYADPYRQLPY [CTNND2_Y503_Q507P] | Hck (UniProt P08631) | class C |
